meta.source: PubChem BioAssay AID1851

Quick list: activity, negative = inhibition per entry.
- testTarget: Cytochrome P450 1A2 (Homo sapiens) (UniProt P05177)
- Sequence (P05177 whole entry, looked up): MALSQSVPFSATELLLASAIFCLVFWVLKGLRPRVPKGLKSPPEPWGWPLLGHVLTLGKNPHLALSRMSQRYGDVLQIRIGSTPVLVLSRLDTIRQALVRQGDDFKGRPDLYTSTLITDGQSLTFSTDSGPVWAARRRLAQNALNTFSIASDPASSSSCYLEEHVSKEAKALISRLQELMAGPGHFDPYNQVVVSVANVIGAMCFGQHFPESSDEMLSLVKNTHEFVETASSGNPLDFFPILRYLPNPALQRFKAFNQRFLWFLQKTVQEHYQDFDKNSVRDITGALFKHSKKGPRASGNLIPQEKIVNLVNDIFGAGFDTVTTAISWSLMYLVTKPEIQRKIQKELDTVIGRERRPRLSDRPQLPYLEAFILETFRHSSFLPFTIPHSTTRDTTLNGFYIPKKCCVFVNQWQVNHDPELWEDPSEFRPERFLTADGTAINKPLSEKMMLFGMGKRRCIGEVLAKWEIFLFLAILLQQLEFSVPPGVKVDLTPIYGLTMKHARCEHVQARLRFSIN
- runDescription: Cytochrome panel assay with activity outcomes; note: % is set by controls: 0 for no effect and ±100 for the full control effect
- conditionSet: recombinant CYP, pro-luciferin dealkylation, luminescence, p450-cyp1a2; series mostly up to 57.1 µM
The campaign covered roughly 16,000 compounds. About 5,700 (36%) were called active. Another 24% or so got no clear call; they are omitted. The list shows a part of the results.

Below, 2 compounds whose answers are already recorded.
{"columns": ["smilesRecord", "result"],
 "data": [
  ["Cc1cc(C2(c3cc(C)c(O)c(C(=O)O)c3)OS(=O)(=O)c3ccccc32)cc(C(=O)O)c1O", "-9.3% [at 11.4 µM] (inactive)"],
  ["CCCCNN", "-6.54% [at 2.29 µM] (inactive)"]
]}

**Query** Form field: reported activity, negative = inhibition of Cc1cc2sc(C)[n+](CCCOS(=O)(=O)O)c2cc1C
**Result** -10.3% [at 11.4 µM] (inactive)

**Query** Another compound to look at: Cc1cc(Cc2c(C)c(C)c(Cc3cc(C)cc(C(C)(C)C)c3O)c(C)c2C)c(O)c(C(C)(C)C)c1
**Result** 4.96% [at 2.29 µM] (inactive)

* * *

- testTarget: Cytochrome P450 1A2 (Homo sapiens) (UniProt P05177)
- runDescription: Cytochrome panel assay with activity outcomes; note: % is set by controls: 0 for no effect and ±100 for the full control effect
- conditionSet: recombinant CYP, pro-luciferin dealkylation, luminescence, p450-cyp1a2; series mostly up to 57.1 µM
Out of some 16,000 compounds screened, about 5,700 (36%) were called active. About 24% were inconclusive and are not listed. This is one part of the list.
Quick list: activity, negative = inhibition per entry.

Below, 6 compounds whose answers are already recorded.
{"columns": ["smilesRecord", "activity, negative = inhibition"],
 "data": [
  ["NC(N)=NC[C@@H]1CCCCCCN1", "-17.8% [at 11.4 µM] (inactive)"],
  ["CC(=O)OC[C@@H]1O[C@H](C/C=N\\O[C@@H](C)CN2CCCCc3nc(C)c(C)cc32)C=C[C@@H]1OC(C)=O", "-2.17% [at 11.4 µM] (inactive)"],
  ["Nc1nc(-c2ccccc2)c(-c2ccccc2)c(-c2nc(N)nc(-c3ccccc3)c2-c2ccccc2)n1", "-4.5% [at 11.4 µM] (inactive)"],
  ["O=C(O)Cc1cccnc1", "-13.8% [at 11.4 µM] (inactive)"],
  ["CO[C@@H]1COC(=O)[C@H]2CCCN2C(=O)[C@@H](C)COC(=O)[C@H](COCc2ccccc2)NC(=O)C/C=C\\[C@H]1C", "-3.84% [at 11.4 µM] (inactive)"],
  ["Cc1cc(=Nc2ccc3c(c2)c(N)cc(C)[n+]3C)nc(N)n1C", "-5.28% [at 2.29 µM] (inactive)"]
]}

**Query** Form field: reported activity, negative = inhibition of CN(C)Cc1ccc(-c2cc3onc(-c4ccccc4)c3c(=O)n2C)cc1
**Result** -13.3% [at 11.4 µM] (inactive)

**Query** Another compound to look at: COc1cccc([C@H]2Oc3ccc(OC)cc3/C(=N\OC[C@@H](O)[C@@H]3O[C@@H]4OC(C)(C)O[C@@H]4[C@H]3O)[C@@H]2O)c1
**Result** -8.99% [at 11.4 µM] (inactive)

**Query** Another compound to look at: CCOC(=O)CCN1C(=O)[C@H]2[C@H]3[C@H](O)[C@H](O)C/C(=N/OC[C@@H](O)COCc4ccco4)[C@H]3CC[C@@H]2C1=O
**Result** -1.05% [at 11.4 µM] (inactive)
